Target: T1, huMAGEB2(1-319), biotinylated full length MAGEB2 protein (human, UniProt O15479 1-319, biotinylated with recombinant BirA (site not stated))
T1 construct: Expressed in E. coli from pET23; N-terminal 6xHis tag removed with caspase 3; also called Biotinylated MAGEB2 full length protein
T1 sequence: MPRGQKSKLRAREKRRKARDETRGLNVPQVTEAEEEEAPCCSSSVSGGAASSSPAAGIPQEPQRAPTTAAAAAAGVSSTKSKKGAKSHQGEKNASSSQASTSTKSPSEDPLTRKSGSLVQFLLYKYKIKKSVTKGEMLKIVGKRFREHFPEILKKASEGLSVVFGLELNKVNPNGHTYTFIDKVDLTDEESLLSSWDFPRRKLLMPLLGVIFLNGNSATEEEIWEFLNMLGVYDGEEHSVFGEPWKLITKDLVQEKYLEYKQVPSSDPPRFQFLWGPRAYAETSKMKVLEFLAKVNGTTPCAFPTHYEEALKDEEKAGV
Test: limited antigen FACS; biotinylated full length MAGEB2 on LumAvidin beads; B-cell supernatant

# Binder, binding result
data = [
    ("1C18 (antibody, IgG1, V domains shown, Rabbit monoclonal IgG1) VH: QSLEESGGGLVQPEGSLTLTCTASGFTLTNYYICWVRQAPGKGLEWIACIDNANGRTYYATWAKGRFTISKTSSTTVTLQMPSLTAADTATYFCARSLSTNLWGPGTLVTVSS VL: DIVMTQTPASVEAAVGGTVTIKCQASQSISSWLSWYQQKPGQPPKLLLYRATTLASGVPSRFKGSGSGTQFTLTISDLECADAATYYCQSYDDSSSSNFFYAFGGGTEVVVR", "binds"),
    ("5I9 (antibody, IgG1, V domains shown, Rabbit monoclonal IgG1) VH: QSLEESGGRLVTPGGPLTLTCTVSGFSLSSYDMSWVRQAPGKGLEWIGYIATDGRPYYASWAKGRFTISKPSSTTVDLKITSPTTEDTATYFCVRGGYAGGLWGPGTLVTVSS VL: AAVLTQTPSPVSAAVGGTVSISCQSSKSVYNNNWLAWYQQKPGQRPKLLIYDASTLDSGVSSRFKGSGSGTQFTLTISDVQCDDGATYYCVGGYSSRSDNGFGGGTEVVVK", "binds"),
]
